settings: in acetone, 278.15 K
OUTCOME MEASURE: solubility (mole fraction)
Write the value as a bare number.

Summary for this molecule, O=C1NC23NC(=O)NC2(N1)C(=O)NC3=O (stereo unspecified) : solubility (mole fraction) is 6.73e-05

###

conditions: in acetonitrile, 313.15 K
OUTCOME MEASURE: solubility (mole fraction)
Please state the value as a number alone, without comment.

Record O=C1NC23NC(=O)NC2(N1)C(=O)NC3=O (stereo unspecified) . Reported solubility (mole fraction): 5.5e-05

###

conditions: in water, 283.15 K
OUTCOME MEASURE: solubility (mole fraction)
The answer should be written as a number, with no unit following it.

Item: O=C1NC23NC(=O)NC2(N1)C(=O)NC3=O (stereo unspecified) | solubility (mole fraction): 9.34e-05

###

settings: in acetonitrile, 293.15 K
OUTCOME MEASURE: solubility (mole fraction)
Answer with a number only.

O=C1NC23NC(=O)NC2(N1)C(=O)NC3=O (stereo unspecified) yielded solubility (mole fraction) of 2.16e-05

###

settings: in toluene, 278.15 K
OUTCOME MEASURE: solubility (mole fraction)
// return just the number, without any unit appended

Reported solubility (mole fraction) ( O=C1NC23NC(=O)NC2(N1)C(=O)NC3=O (stereo unspecified) ) = 4.3e-06

###

details: in water, 298.15 K
OUTCOME MEASURE: solubility (mole fraction)
Reply: number alone, nothing else.

Value of solubility (mole fraction) reported for the compound O=C1NC23NC(=O)NC2(N1)C(=O)NC3=O (stereo unspecified) is 0.000188

###

conditions: in isopropanol, 308.15 K
OUTCOME MEASURE: solubility (mole fraction)
Note: the reply should be a number with no unit written.

Sample O=C1NC23NC(=O)NC2(N1)C(=O)NC3=O (stereo unspecified) ; solubility (mole fraction) observed: 0.000482

###

conditions: in n-propanol, 308.15 K
OUTCOME MEASURE: solubility (mole fraction)
Kindly provide the number alone.

Documented solubility (mole fraction) of O=C1NC23NC(=O)NC2(N1)C(=O)NC3=O (stereo unspecified) : 0.000122

###

conditions: in ethanol, 308.15 K
OUTCOME MEASURE: solubility (mole fraction)

The reported solubility (mole fraction) of the compound O=C1NC23NC(=O)NC2(N1)C(=O)NC3=O (stereo unspecified) was 0.000264

###

details: in acetone, 298.15 K
OUTCOME MEASURE: solubility (mole fraction)
Lab note: record the figure alone, no unit after it.

In plain terms, O=C1NC23NC(=O)NC2(N1)C(=O)NC3=O (stereo unspecified) has a documented solubility (mole fraction) of 0.000131

###

settings: in THF, 278.15 K
OUTCOME MEASURE: solubility (mole fraction)
Reply with just the number.

Measured solubility (mole fraction) of O=C1NC23NC(=O)NC2(N1)C(=O)NC3=O (stereo unspecified) : 0.000655

###

conditions: in THF, 313.15 K
OUTCOME MEASURE: solubility (mole fraction)
// no unit string in output, number only

Item: O=C1NC23NC(=O)NC2(N1)C(=O)NC3=O (stereo unspecified) | solubility (mole fraction): 0.00274

###

settings: in THF, 303.15 K
OUTCOME MEASURE: solubility (mole fraction)
Answer with the value's number alone.

Value of solubility (mole fraction) reported for the compound O=C1NC23NC(=O)NC2(N1)C(=O)NC3=O (stereo unspecified) is 0.00192

Reference for the values: BigSolDB 2.1
